ASSAY_SYSTEM: hGIPR (Homo sapiens)
Sequence (P48546 22-466): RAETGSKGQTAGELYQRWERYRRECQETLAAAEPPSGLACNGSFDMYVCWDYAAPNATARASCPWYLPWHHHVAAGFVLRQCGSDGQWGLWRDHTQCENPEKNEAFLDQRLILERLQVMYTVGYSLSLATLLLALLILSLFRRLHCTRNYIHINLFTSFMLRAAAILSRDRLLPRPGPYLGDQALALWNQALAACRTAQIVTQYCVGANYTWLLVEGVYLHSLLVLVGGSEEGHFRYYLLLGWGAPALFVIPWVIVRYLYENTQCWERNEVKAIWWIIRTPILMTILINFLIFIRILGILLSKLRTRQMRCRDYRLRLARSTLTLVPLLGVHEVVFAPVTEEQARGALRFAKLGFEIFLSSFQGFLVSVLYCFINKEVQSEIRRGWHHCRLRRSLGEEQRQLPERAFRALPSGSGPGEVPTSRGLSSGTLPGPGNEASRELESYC
PROCEDURE_DETAILS: Functional cAMP activation in the presence of 0.1% casein (no HSA);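 note: intracellular cAMP rise after 30 min at 37 °C read by HTRF against a standard curve, scaled between buffer alone (0%) and top control ligand concentration (100%), four-parameter fit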
Type: cell-based
EXPERIMENTAL_CONTEXT: read-out: Relative cAMP EC50, hGIPR
Starred links: 1 amine or outer side, 2 acyl side, 3 side chain; linkers in the order of their positions; H or OH if unused. Non-standard residues stand in square brackets, D forms with d. Groups on a side chain read outwards from the residue. No end group written: not given here. *: point of attachment. C18 diacid = O=C(O)CCCCCCCCCCCCCCCCC(=O)*; αMePhe(2-F) = C[C@](N)(Cc1ccccc1F)C(=O)O; γGlu = O=C(O)[C@H](CCC(=O)[*:2])N[*:1]; αMe4Pal = C[C@](N)(Cc1ccncc1)C(=O)O; αMeY = C[C@](N)(Cc1ccc(O)cc1)C(=O)O; 4Pal = N[C@@H](Cc1ccncc1)C(=O)O; αMeL = CC(C)C[C@](C)(N)C(=O)O; αMeS = C[C@](N)(CO)C(=O)O; Orn = NCCC[C@H](N)C(=O)O; AEEA = NCCOCCOCC(=O)O; Aib = CC(C)(N)C(=O)O
OBSERVATION_TYPE: pEC50
pEC50 here is simply -log10 of the concentration when that concentration is written in mol/L.

Input line: Could you share which pEC50 value was measured for H-Y[Aib]QGT[αMePhe(2-F)]TSD[4Pal]SI[αMeL]LD[Orn]K([AEEA-γGlu-C18 diacid])AQ[αMe4Pal][Orn]FI[dE][αMeY]LIEGGPSSGDPPPEGTGE-NH2 [Example 732] ?
Output line: 10.93

Input line: Any idea what pEC50 was measured for H-Y[Aib]QGT[αMePhe(2-F)]TSD[4Pal][αMeS]ILLD[Orn]K([γGlu-γGlu-C18 diacid])AQ[Aib][Orn]FI[dE]YLIEGGPSSGEPPPSGTGE-NH2 [Example 548] ?
Output line: 10.26

Input line: What pEC50 value was documented for this substance, H-Y[Aib]QGT[αMePhe(2-F)]TSD[4Pal]SI[αMeL]LDKK([γGlu-γGlu-C18 diacid])AQ[Aib]AFIEYLEEGGPSSGEPPPSGEGE-NH2 [Example 625] ?
Output line: 10.54

Input line: For Y[Aib]QGT[αMePhe(2-F)]TSD[4Pal]SI[αMeL]LD[Orn]K([AEEA-γGlu-C18 diacid])AQ[αMe4Pal][Orn]FI[dE][αMeY]LIEGGPSSGEPPPEGGGE-NH2 [Example 757] , what is its reported pEC50?
Output line: 11.02

Input line: Sample H-Y[Aib]QGT[αMePhe(2-F)]TSD[4Pal][αMeS]I[αMeL]LD[Orn]K([γGlu-γGlu-C18 diacid])AQ[Aib][Orn]FI[dE]YLSEGGPSSGEPPPSGTE-NH2 [Example 530] — what was its pEC50?
Output line: 9.06

Input line: Which pEC50 value is on record for Y[Aib]QGT[αMePhe(2-F)]TSD[4Pal][αMeS]I[αMeL]LD[Orn]K([γGlu-γGlu-C18 diacid])AQ[Aib][Orn]FI[dE][αMeY]LQEGGPSSGEPPPEGAEE-NH2 [Example 587] ?
Output line: 10.20

Input line: Please look up its pEC50: H-Y[Aib]QGT[αMePhe(2-F)]TSD[4Pal]SI[αMeL]LD[Orn]K([AEEA-γGlu-C18 diacid])AQ[αMe4Pal][Orn]FI[dE][αMeY]LIEGGPSSGEPPPEAE-NH2 [Example 676]
Output line: 10.97

Input line: pEC50 lookup needed for Y[Aib]QGT[αMePhe(2-F)]TSD[4Pal]SILLDKK([γGlu-γGlu-C18 diacid])AQ[Aib]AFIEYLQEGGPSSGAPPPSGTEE-NH2 [Example 580] , thanks.
Output line: 10.37

Input line: Name the recorded pEC50 for H-Y[Aib]QGT[αMePhe(2-F)]TSD[4Pal][αMeS]I[αMeL]LD[Orn]K([AEEA-γGlu-C18 diacid])AQ[αMe4Pal]EFI[dE][αMeY]LIEGGPSSGEPPPSGGGE-NH2 [Example 742] .
Output line: 11.16

Input line: Quick one: pEC50 of H-Y[Aib]QGT[αMePhe(2-F)]TSD[4Pal]SI[αMeL]LD[Orn]K([AEEA-γGlu-C18 diacid])AQ[αMe4Pal][Orn]FI[dE][αMeY]LIEGGPSSGEPPPEGTGE-NH2 [Example 680] ?
Output line: 11.00
